assay: Electrometric titration (pKa); assay type: physicochemical; conditions: electrometric titration in 66% aqueous dimethylformamide; read-out: pKa value of titratable group
Outcome Measure: pKa

Sample CCC1OC(=O)CC(O)C(C)C(OC2OC(C)C(OC3CC(C)(O)C(O)C(C)O3)C(N(C)C)C2O)C(CC=O)CC(C)C(=O)C=CC(C)=CC1COC1OC(C)C(O)C(O)C1O (stereo not shown) ; pKa observed: ~7.14

Where do these numbers come from? They come from patent EP0045157A1.
